- test_details: yeast display, Sf9 membrane polyspecificity reagent, FACS + sequencing; frameworks hold sequencing errors
observed_property: polyreactivity (PSR sort gate)

Consider the worked cases shown below.
QVQLVESGGGLVQAGGSLRLSCAASGLNFVQYVMGWYRQATGKERELVAAITDDGNTYYADSVKGRFTISRDNAKNTVYLQMNSLKPEDTEVYYCNAVLRSYDFWPGYGYWGQGTQVTVSS	low polyreactivity
QVQLVESGGGLVQAGGSLRLSCAASGRTFGINAMGWYRQAPGKETELVAVISFGDGGTYYADSVKGRFTISRDNAKNTVYLQMNSLTPEDTAVYYCATDYQSTSVWGGHFVINPYDYWGQGTQVTVSS	low polyreactivity
QVQLVESGGGLVQAGGSLRLSCAASGFTFTSYAMGWYRQAPGKERELVAAINRSGGSTTYADSVKGRFTISRDNAKNTVYLQMNSLNPEDTAVYYCAKAFRGHYWGQGTQVTVSS	high polyreactivity
QVQLVESGGGLVQAGGSLRLSCAASGFIFSIYAMGLYRQAPGTERELVAGIDNGGGTYYADSVKGRFTISRDNAKNTVYLQMNSLKPEDTAVYYCAADTYSIGELYDYWGQGTQVNVSS	low polyreactivity
QVQLVESGGGLVQAGGILRLSCAASGIIFVSYDRGWYRQAPGKERELVAAINRGGRTYYADSVKGRFTISRDNAKNTVYLQMNSLKPEDTAVYYCAAQFHFRPFSWTYDYWGQGTQVTVSS	high polyreactivity

GET /value?item= QVQHVESAGGLVQAGGSLRLSCPASGRTINRNAMGWYRQAPGKERELVAAISWSGGRTYYADSVKGRFTISRDTAKNTVYLQMTSLKPEDTAVFSCAAPGNKYWGQGTQVTVSS &field=polyreactivity (PSR sort gate) returns high polyreactivity

// QVQLVESGGGLVQAGGSLRLSCAASGRIFNSYAMGWYRQAPGKERELVAAITRGGSTNYADSVKGRFTISRDNAKNTVYLHMNSLKPEDTAVYYCAAVTLFHYRYDYWGQGTQVTVSS : polyreactivity (PSR sort gate) value = low polyreactivity

polyreactivity (PSR sort gate) measured on QVQLVESGGGLVQAGGSLRLICAASGSTFTRYAMGWYRQAPGKERELVAAITSSGSRTYYADSVKGRFTISRDNAQNTVYLQMNSLKPEDTAVYYFAALGDTRYVGMDHWGQGTQVTVSS = high polyreactivity

Measured polyreactivity (PSR sort gate), QVQLVESGGGLVQAGGSLRLSCDASGSIIRYYAMGWYRQAPGKERELVAAINSLGGTTYYADSVKGRFTISRDNAKNTVYLQMNSLKPEDTAVYYCAAGYPPLHTSVQQTAHYGLDYCGQGTQVTVSS : high polyreactivity

The recorded polyreactivity (PSR sort gate) for entry QVQLVESVGGLVQAGGSLRLSCAASGSIFASNSMGWYRQETGKEREFVAAITWRTDRTYYADSVKGRFTISRDNAKNTLYFQMNSLKPEDTAVYYFAADTWFYRFYYWGQGTQVTVSS equals high polyreactivity

// field: polyreactivity (PSR sort gate); key: QVQLVESGGGLVQAGGSLRLSCAASGSNFQVNAMGWYRQAPGKERELVASIDSSGGSTYYADSVKGRFTISRDNAKNTVYLQMNSLKPEDTAVFYCAAEYHHYYYYWGEYWGQGTQVTVSS ; value = low polyreactivity
